Source listed as patent US20240199692A1.

# maps each entry to its IC50
molecular target: MMP2 (Homo sapiens, UniProt P08253); assay: Inhibitory effects on human MMP2 (Method 1), enzyme assay with MOCAc-Pro-Leu-Gly-Leu-A2pr(Dnp)-Ala-Arg-NH2 substrate, 96-well; type: biochemical; settings: Test Example No. 1-1 (Method 1, 96-well microplate); read-out: Human MMP2, IC50
Sequence (P08253 110-660): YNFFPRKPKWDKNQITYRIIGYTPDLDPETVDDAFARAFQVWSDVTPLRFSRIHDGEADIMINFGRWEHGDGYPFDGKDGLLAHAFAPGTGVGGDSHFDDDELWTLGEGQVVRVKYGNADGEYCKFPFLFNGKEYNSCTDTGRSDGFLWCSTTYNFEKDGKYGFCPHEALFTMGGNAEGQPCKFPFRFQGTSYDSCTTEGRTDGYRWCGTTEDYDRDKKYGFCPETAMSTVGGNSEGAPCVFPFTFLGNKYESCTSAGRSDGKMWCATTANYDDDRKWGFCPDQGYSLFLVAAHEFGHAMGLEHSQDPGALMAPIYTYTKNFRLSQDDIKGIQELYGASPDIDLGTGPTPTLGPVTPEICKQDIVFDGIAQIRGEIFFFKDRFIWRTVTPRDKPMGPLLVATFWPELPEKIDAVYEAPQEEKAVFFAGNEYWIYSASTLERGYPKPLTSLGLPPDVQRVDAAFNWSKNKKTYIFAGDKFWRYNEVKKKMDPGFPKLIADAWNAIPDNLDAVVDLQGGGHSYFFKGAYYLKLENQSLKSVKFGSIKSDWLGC
*1 amine or outer side, *2 acyl side, *3 side chain or, on linkers, in order; H or OH if unused. Where a SMILES comes first, the peptide text is derived from it. [ ]: non-standard residue; d: D form. The star is where a group is joined. Phenylsulfonyl(4-anisamido) = COc1ccc(C(=O)Nc2ccc(S(=O)(=O)*)cc2)cc1; Benzoyl(4-O-C6H4-4-CONHMe) = CNC(=O)c1ccc(Oc2ccc(C(=O)*)cc2)cc1; X4 = NC(=O)CCCCNC(=O)c1ccc(Oc2ccc(C(=O)*)cc2)cc1; Benzoyl(4-OPh) = O=C(c1ccc(Oc2ccccc2)cc1)*; d(γGlu) = O=C(O)[C@@H](CCC(=O)[*:2])N[*:1]; d(βAsp) = O=C(O)[C@@H](CC(=O)[*:2])N[*:1]; X7 = O=S(=O)(c1ccc(-c2ccc(OCCO)cc2)cc1)*; X5 = O=S(=O)(c1ccc(-c2ccc(CO)cc2)cc1)*; NMeI = CC[C@H](C)[C@H](NC)C(=O)O; NMeE = CN[C@@H](CCC(=O)O)C(=O)O; NMeL = CN[C@@H](CC(C)C)C(=O)O; β3hP = O=C(O)C[C@@H]1CCCN1; Aze = O=C(O)[C@@H]1CCN1; Dab = NCC[C@H](N)C(=O)O; Ava = NCCCCC(=O)O; GABA = NCCCC(=O)O
Please give a number only; it is taken to be in pM.

Solved cases (2 shown):
[[record]]
compound = "CC[C@H](C)[C@@H](C(=O)N1CCC[C@H]1CC(N)=O)N(C)C(=O)[C@H](CC(C)C)NC(=O)[C@H](CCN)NC(=O)[C@H](CC(=O)O)NC(=O)[C@H](CCCCN)NC(=O)CCCCNC(=O)c1ccc(Oc2ccc(C(=O)NC)cc2)cc1 [Compound 185] ({Benzoyl(4-O-C6H4-4-CONHMe)-Ava}-KD[Dab]L[NMeI][β3hP]-NH2; N-terminus assumed)"
readout_type = "IC50"
unit_name = "pM"
measured_value = 1000

[[record]]
compound = "CC[C@H](C)[C@@H](C(=O)N1CCC[C@H]1CC(N)=O)N(C)C(=O)[C@H](CC(C)C)NC(=O)[C@H](CCN)NC(=O)[C@H](CC(=O)O)NC(=O)[C@@H]1CCN1C(=O)CCCNC(=O)c1ccc(Oc2ccccc2)cc1 [Compound 133] ({Benzoyl(4-OPh)-GABA}-[Aze]D[Dab]L[NMeI][β3hP]-NH2; N-terminus assumed)"
readout_type = "IC50"
unit_name = "pM"
measured_value = 880


IC50 for CC[C@H](C)[C@@H](C(=O)N1CCC[C@H]1CC(N)=O)N(C)C(=O)[C@H](CC(C)C)NC(=O)[C@H](CCN)NC(=O)[C@H](CC(=O)O)NC(=O)[C@H](CCC(=O)O)NC(=O)CCCCNC(=O)c1ccc(Oc2ccc(C(=O)NCCCCC(N)=O)cc2)cc1 [Compound 201] ({X4-Ava}-ED[Dab]L[NMeI][β3hP]-NH2; N-terminus assumed) is 1400

IC50 for CC[C@H](C)[C@@H](C(=O)N1CCC[C@H]1C(N)=O)N(C)C(=O)[C@H](CC(C)C)NC(=O)[C@H](C)NC(=O)[C@H](CC(=O)O)NC(=O)[C@@H]1CCCN1C(=O)CCCNC(=O)c1ccc(Oc2ccccc2)cc1 [Compound 117] ({Benzoyl(4-OPh)-GABA}-PDAL[NMeI]P-NH2; N-terminus assumed) is 550

IC50 for CC[C@H](C)[C@@H](C(=O)N1CCC[C@H]1CC(N)=O)N(C)C(=O)[C@H](CC(C)C)NC(=O)[C@H](CCN)NC(=O)CC[C@@H](NS(=O)(=O)c1ccc(NC(=O)c2ccc(OC)cc2)cc1)C(=O)O [Compound 695] ({Phenylsulfonyl(4-anisamido)-d(γGlu)}-[Dab]L[NMeI][β3hP]-NH2; N-terminus assumed) is 530

IC50 for CC(C)C[C@H](NC(=O)[C@H](CCN)NC(=O)C[C@@H](NS(=O)(=O)c1ccc(-c2ccc(OCCO)cc2)cc1)C(=O)O)C(=O)N(C)[C@@H](CCC(=O)O)C(=O)N1CCC[C@H]1CC(N)=O [Compound 640] ({X7-d(βAsp)}-[Dab]L[NMeE][β3hP]-NH2; N-terminus assumed) is 380

IC50 for CC[C@H](C)[C@@H](C(=O)N1CCC[C@H]1C(N)=O)N(C)C(=O)[C@H](CC(C)C)NC(=O)[C@H](C)NC(=O)[C@H](CC(=O)O)NC(=O)[C@H](CC(C)C)N(C)C(=O)CCCNC(=O)c1ccc(Oc2ccccc2)cc1 [Compound 120] ({Benzoyl(4-OPh)-GABA}-[NMeL]DAL[NMeI]P-NH2; N-terminus assumed) is 210

IC50 for CC[C@H](C)[C@@H](C(=O)N1CCC[C@H]1CC(N)=O)N(C)C(=O)[C@H](CC(C)C)NC(=O)[C@H](CCN)NC(=O)C[C@@H](NS(=O)(=O)c1ccc(-c2ccc(CO)cc2)cc1)C(=O)O [Compound 642] ({X5-d(βAsp)}-[Dab]L[NMeI][β3hP]-NH2; N-terminus assumed) is 1600
